# assay-name: Quantitative High-Throughput drug screen in 47 multiple myeloma cell lines against the NCATS MIPE library collection: MOLP8_DSMZ cell viability assay (AID 1918977); note: nearly all actives have a fitted effect of over 45% in size
# condition-details: MOLP8 myeloma viability, CellTiter-Glo ATP luminescence, 48 h; series mostly up to 45.8 µM
# From the text: PI: Beverly A. Mock Ph.D. Laboratory of Cancer Biology and Genetics, Center for Cancer Research, National Cancer Institute, National Institute of Health, Bethesda, Maryland […] 5; Detector; 425V; Luminescence; Viewlux PerkinElmer. […] 1. […] Briefly, the corresponding myeloma cell lines were screened in 1,536-well plates with 500 cells, 5-uL per well for inhibition of cell viability (assessed by measuring ATP levels with CellTiterGlo). […]
Results filed as inconclusive are left out. Active and inactive are the calls of the source. Calls come from the whole dose curve; as a rule, active = well fitted cell-killing curve with a large enough effect; inconclusive = small, poorly fitted or top-dose-only effect, or effect the other way; inactive = no such curve, though single readings can be large or run the other way.
One label from this list, please: TRUE (active), FALSE (inactive)

Worked cases, answers included:
compound: CCc1ccc(C=C2SC(=S)NC2=O)cc1
group-label: FALSE
//
compound: COc1ccc(-c2coc3cc(O)ccc3c2=O)cc1
group-label: TRUE
//
compound: CON=C(C(=O)N[C@@H]1C(=O)N2C(C(=O)OCOC(=O)C(C)(C)C)=C(C=Cc3scnc3C)CS[C@H]12)c1csc(N)n1
group-label: FALSE

Data request: Could you check what this test reported for `CC(C)(C(=O)NCC(F)(F)C(F)(F)F)C(=O)N[C@@H]1C(=O)Nc2ccccc2-c2ccccc21` ?
Data returned: FALSE

Data request: What did this assay record as the result for `O=C1c2c(O)cc(O)cc2O[C@H](c2cc(O)c(O)c(O)c2)[C@H]1O` ?
Data returned: TRUE

Data request: What is the recorded call for this compound in the test? `Cc1c(NC(=O)c2ccc(C(C)(C)C)cc2)cccc1-c1cn(C)c(=O)c(Nc2ccc(C(=O)N3CCOCC3)cc2)n1`
Data returned: FALSE

Data request: Could you please tell me the result logged for `COc1cccc([C@@H](C)NCCCc2ccccc2Cl)c1` in this assay?
Data returned: FALSE

Data request: How did this test come out for O=C(O)C(O)Cc1ccc(O)c(O)c1 (stereo not drawn) ?
Data returned: TRUE

Every entry's value here was drawn from PubChem BioAssay (NCATS).
